Documented log10 of IC50 across a set of compounds
# measured_target: androgen receptor (Homo sapiens, UniProt P10275)
# Sequence (P10275 1-920 Q868H): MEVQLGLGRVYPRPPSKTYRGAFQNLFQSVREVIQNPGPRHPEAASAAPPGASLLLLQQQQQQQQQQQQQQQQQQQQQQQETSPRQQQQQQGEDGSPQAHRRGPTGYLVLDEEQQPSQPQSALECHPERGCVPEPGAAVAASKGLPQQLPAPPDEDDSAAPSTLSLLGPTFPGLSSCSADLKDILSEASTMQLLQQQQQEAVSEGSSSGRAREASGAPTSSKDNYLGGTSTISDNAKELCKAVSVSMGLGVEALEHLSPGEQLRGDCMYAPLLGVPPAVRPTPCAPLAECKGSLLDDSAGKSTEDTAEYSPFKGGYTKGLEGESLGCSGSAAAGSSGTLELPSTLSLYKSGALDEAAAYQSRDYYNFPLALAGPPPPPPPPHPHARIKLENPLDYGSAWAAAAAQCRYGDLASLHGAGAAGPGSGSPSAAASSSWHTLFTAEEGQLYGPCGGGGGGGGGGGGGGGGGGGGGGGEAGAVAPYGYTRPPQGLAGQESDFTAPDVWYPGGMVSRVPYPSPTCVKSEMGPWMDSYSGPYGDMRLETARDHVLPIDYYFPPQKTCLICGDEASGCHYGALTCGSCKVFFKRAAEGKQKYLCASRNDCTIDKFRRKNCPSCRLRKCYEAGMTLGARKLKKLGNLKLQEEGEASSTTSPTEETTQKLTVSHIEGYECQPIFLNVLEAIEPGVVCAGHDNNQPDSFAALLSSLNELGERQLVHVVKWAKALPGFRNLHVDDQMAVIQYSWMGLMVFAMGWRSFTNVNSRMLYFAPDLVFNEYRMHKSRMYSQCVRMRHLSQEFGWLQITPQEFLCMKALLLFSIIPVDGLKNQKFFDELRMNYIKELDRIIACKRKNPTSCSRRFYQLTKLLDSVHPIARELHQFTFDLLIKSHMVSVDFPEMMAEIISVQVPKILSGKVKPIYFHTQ
# assay_name: AR antagonist cell assay (MDA-MB453-MMTV clone 54-19 luciferase reporter, 100 pM DHT)
# Type: cell-based
# condition_context: MDA-MB453-MMTV clone 54-19, inhibition of 100 pM DHT induction, 17 hr; mean of multiple tests; read-out: AR Cell IC50
Units before log transform: nM; reported quantity: IC50; transform: log10.

compound="COc1cccc(CNC(=O)C(CC(C)C)Oc2ccc(C#N)c(C(F)(F)F)c2)c1 (centres unmarked)" quantity="log10 of IC50" reported=2.94
compound="COc1ccc([C@H](C)NC(=O)C(CC(C)C)Oc2ccc(C#N)c(C(F)(F)F)c2)cc1 (stereo in doubt)" quantity="log10 of IC50" reported=2.20
compound="CCCCC(Oc1ccc(C#N)c(C(F)(F)F)c1)C(=O)NCc1ccccc1 (centres unmarked)" quantity="log10 of IC50" reported=2.73
compound=CCC[C@H](Oc1ccc(C#N)c(Cl)c1)C(=O)NCCc1c[nH]c2ccccc12 quantity="log10 of IC50" reported=0.48
compound="CCCC(Oc1ccc(C#N)c(C(F)(F)F)c1)C(=O)N[C@H](C)c1ccc(O)cc1 (stereo in doubt)" quantity="log10 of IC50" reported=2.07

Note to self: log10 of IC50 recorded for CCCC(Oc1ccc(C#N)c(C(F)(F)F)c1)C(=O)NCc1ccc2c(c1)CCO2 (centres unmarked) was 2.55
